biological target: beta-catenin/TCF4 engagement (Homo sapiens, UniProt P35222); construct: expressed in transfected cells; host or cells: HEK293; assay: Nano-BRET target engagement assay (B-cat-Halo & TCF4-Luc in HEK293 cells); assay type: cell-based; settings: read-out: NanoBRET Abs IC50
Sequence (P35222 whole entry): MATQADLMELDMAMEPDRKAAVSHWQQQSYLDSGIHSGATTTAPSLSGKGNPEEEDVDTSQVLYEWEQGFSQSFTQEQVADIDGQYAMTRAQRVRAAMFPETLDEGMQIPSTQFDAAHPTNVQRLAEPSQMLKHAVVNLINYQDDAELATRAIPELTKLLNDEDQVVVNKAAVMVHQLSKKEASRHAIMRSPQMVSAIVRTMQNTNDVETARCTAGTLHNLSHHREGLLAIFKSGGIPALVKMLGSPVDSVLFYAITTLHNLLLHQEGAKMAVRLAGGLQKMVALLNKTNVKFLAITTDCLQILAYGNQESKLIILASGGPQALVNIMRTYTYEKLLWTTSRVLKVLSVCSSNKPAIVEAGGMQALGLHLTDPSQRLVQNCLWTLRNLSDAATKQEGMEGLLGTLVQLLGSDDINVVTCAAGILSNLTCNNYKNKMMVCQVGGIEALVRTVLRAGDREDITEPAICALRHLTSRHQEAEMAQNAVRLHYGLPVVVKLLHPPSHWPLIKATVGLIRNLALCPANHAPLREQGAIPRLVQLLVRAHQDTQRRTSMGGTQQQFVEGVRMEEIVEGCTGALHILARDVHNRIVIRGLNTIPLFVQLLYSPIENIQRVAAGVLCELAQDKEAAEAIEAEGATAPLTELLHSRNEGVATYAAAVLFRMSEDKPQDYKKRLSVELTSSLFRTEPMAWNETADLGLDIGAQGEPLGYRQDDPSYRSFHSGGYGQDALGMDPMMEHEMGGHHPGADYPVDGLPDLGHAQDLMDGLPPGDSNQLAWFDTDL
IC50 values for the compounds below.
# number only, unit µM dropped from output

CC(=O)N1CCC[C@]12CC=CCCCC1(CCCC=CCCCOC(=O)N3CC[C@@](C(=O)N[C@@H](Cc4ccsc4)C(=O)N[C@@H](Cc4csc5ccccc45)C(=O)N[C@@H](Cc4c[nH]cn4)C(N)=O)(C3)NC(=O)[C@H](Cc3ccccc3)NC(=O)[C@H](Cc3ccccc3)NC(=O)[C@H](C)NC(=O)[C@H](C)NC(=O)[C@H](CC(=O)O)NC(=O)[C@H](CC(=O)O)NC1=O)NC(=O)[C@H](CC(C)(C)C)NC(=O)[C@H](CC(=O)O)NC2=O (some centres unmarked) ... 4.4

Please look at the following compound next.
State IC50 (beta-catenin/TCF4 engagement (Homo sapiens, UniProt P35222)) of CC(=O)N1CCC[C@]12CC=CCCCC1(CCCC=CCCCOC(=O)N3CC[C@@](C(=O)N[C@@H](Cc4ccccc4Cl)C(=O)N[C@@H](Cc4csc5ccccc45)C(=O)N[C@@H](CCC(N)=O)C(N)=O)(C3)NC(=O)[C@H](CO)NC(=O)[C@H](Cc3ccccc3)NC(=O)[C@H](C)NC(=O)[C@H](C)NC(=O)[C@H](CC(N)=O)NC(=O)[C@H](CC(=O)O)NC1=O)NC(=O)[C@H](CC(C)(C)C)NC(=O)[C@H](CC(=O)O)NC2=O (some centres unmarked) . 25.8
